species on record: Homo sapiens; experiment: Inhibition of mitochondrial complex I (unknown origin) at 1 uM incubated for 15 mins by microplate reader analysis relative to control
Would you mind sorting the entries by inhibition according to these classes? range 1 (below 4%), range 2 (4% to below 10%), range 3 (10% or more)

Some solved entries appear below for comparison.
> print(dat)
                                smiles.text  label.class
1  Cc1ccccc1Cn1nc(C(=O)Nc2ccc(OC(F)(F)F)cc2)cc1C      range 1
2  Cc1cc(C(=O)Nc2ccc(OC(F)(F)F)cc2)nn1Cc1ccccc1      range 1
3  Cc1cc(C(=O)Nc2ccc(C(F)(F)F)cc2)nn1Cc1cccc(N2CCN(C(=O)C3CC3)CC2)c1      range 3
4  Cc1cc(C(=O)Nc2cc(F)cc(F)c2)nn1Cc1cccc(N2CCN(C(=O)C3CC3)CC2)c1      range 2

Please find the next compound below.
QUERY: Hi, small favor: classify Cc1ccc(Cn2nc(C(=O)Nc3ccc(OC(F)(F)F)cc3)cc2C)cc1 by its inhibition when you get a moment.
RESULT: range 2
